# targetSystem: CsRecQ catalytic core (Cronobacter sakazakii, UniProt A7MQK9 1-521)
# runDescription: fluorescence anisotropy; apparent Kd; 1 mM Mg2+; 20 mM Tris-HCl pH 8.0, 100 mM NaCl, 1 mM MgCl2, 1 mM 2-mercaptoethanol, 0.1 mg/mL BSA, 4% glycerol; 5 nM DNA, 30 min at room temperature, read at 25 C (G4 folded in 10 mM Tris-HCl pH 8.0, 100 mM KCl)
# studyConditions: protein: recombinant; tags: N-terminal His tag removed (thrombin); label: 3' FAM; intramolecular G4 (folded in 100 mM KCl) with 12 nt 3' ssDNA tail
measurementLabel: pKd
Scale explanation: pKd corresponds to minus log10 of a concentration expressed in moles per litre.

Recorded result, TTAGGGTTAGGGTTAGGGTTAGGGTCGGTGCCTTACT (structured_DNA) [F-G4] , pKd: 5.33
